Tested on: UACC-257 melanoma
Test: NCI-60 one-dose screen, 48 h (100 = growth as untreated, 0 = no growth, -100 = all killed)
Condition Notes: 10 µM unless noted
This is part of a sample that, as a whole, favours compounds with a hit. Of some 83,000 tested, about 20% had one in any assay.
Answer each item with its documented growth.
Only the number, expressed in %, is required.

[Q] Output measured growth for this item: COc1cc2ncnc(Nc3ccc(C(=O)/C=C/c4ccc(C(F)(F)F)cc4F)cc3)c2cc1OC
[A] 111

[Q] Determine from records and report growth for COc1cc(/C=N/NC(=O)c2ccccc2Nc2cccc(C(F)(F)F)c2)ccc1O
[A] 23.8

[Q] Quick one: give measured growth for COc1cc(NCCCN(CC(C)C)CC(C)C)c2ncccc2c1
[A] 90.9

[Q] Give reported growth value for Nc1nc(N)nc(NCc2ccccc2)n1
[A] 110

[Q] Please give the documented growth of CCCCCCCCCCCCCCCC(=O)OC[C@@]1(O)C[C@@]23CC[C@@H]4C(C)(C)CCC[C@@]4(C)[C@@H]2CC[C@H]1C3
[A] 104

[Q] Query growth for O=C1Nc2cc(-c3ccncc3)ccc2/C1=C/c1ccc[nH]1
[A] 114

[Q] Output growth of Cc1ccc(C2CC(c3cccc(Nc4ccncc4)c3)=NN2c2ccc(Cl)cc2)cc1 (stereo not given)
[A] -35.1

[Q] Give growth for CC(O)/C=C/C=C/C(O)CC/C=C/C(=O)NCC(C)(C)O (stereo not given)
[A] 91.5

[Q] Please indicate growth recorded for CC(=O)O[C@]1(C(C)=O)CC[C@H]2[C@@H]3C=C(Cl)C4=CC(=O)CC[C@]4(C)[C@H]3CC[C@@]21C
[A] 97.2

[Q] Supply growth value. Item: O=C(Nc1ccc2cc3ccc(NC(=O)N4CCCCCC4)cc3nc2c1)N1CCCCCC1
[A] -75.7
